Data provenance is ChEMBL document CHEMBL1833863.

# Measured on: Focal adhesion kinase 1 (Homo sapiens)
# Sequence (Q05397 whole entry): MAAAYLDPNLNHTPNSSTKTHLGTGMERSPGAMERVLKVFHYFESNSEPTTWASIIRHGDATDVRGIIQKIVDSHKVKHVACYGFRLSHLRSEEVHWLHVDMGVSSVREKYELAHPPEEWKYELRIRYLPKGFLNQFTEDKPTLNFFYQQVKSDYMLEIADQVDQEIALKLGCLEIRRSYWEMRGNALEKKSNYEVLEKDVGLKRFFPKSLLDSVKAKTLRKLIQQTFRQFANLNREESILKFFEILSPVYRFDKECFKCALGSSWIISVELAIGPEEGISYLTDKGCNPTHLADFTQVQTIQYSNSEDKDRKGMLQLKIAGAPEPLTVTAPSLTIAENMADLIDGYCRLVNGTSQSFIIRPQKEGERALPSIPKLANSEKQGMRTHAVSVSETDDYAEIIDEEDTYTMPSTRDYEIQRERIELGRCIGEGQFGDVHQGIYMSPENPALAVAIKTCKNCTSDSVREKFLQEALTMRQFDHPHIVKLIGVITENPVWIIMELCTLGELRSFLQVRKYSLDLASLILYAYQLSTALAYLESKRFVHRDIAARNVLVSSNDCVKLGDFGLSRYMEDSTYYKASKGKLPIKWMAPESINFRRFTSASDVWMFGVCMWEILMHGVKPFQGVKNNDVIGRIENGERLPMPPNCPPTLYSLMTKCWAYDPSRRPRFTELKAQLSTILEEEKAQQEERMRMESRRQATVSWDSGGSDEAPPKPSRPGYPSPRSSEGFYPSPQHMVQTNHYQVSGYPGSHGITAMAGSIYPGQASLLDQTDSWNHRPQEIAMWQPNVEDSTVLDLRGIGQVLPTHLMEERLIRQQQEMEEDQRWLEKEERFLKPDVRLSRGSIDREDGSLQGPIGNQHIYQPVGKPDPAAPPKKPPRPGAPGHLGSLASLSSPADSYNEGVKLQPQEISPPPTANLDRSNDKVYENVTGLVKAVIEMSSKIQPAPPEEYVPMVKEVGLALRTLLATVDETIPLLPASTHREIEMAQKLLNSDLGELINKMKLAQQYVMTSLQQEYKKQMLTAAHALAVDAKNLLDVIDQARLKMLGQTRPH
# Assay method text: Inhibition of human recombinant full-length FAK assessed as remaining ATP after 4 hrs by Kinase-Glo-luminescence assay
Measured quantity: EC50 (µM)
The response must be a number in µM with no trailing unit.

Q: Name the reported EC50 value associated with the compound O=C(Cc1cccc(Br)c1)Nc1nnc(-c2ccc3c(c2)OCCO3)s1
Ans: 60.5

Q: Name the reported EC50 value associated with the compound O=C(Cc1ccc(F)cc1)Nc1nnc(-c2ccc3c(c2)OCCO3)s1
Ans: 51.2

Q: Name the reported EC50 value associated with the compound O=C(Cc1ccc(Cl)cc1)Nc1nnc(-c2ccc3c(c2)OCCO3)s1
Ans: 31.3

Q: Name the reported EC50 value associated with the compound O=C(Nc1nnc(-c2ccc3c(c2)OCCO3)s1)c1ccccc1
Ans: 62

Q: Name the reported EC50 value associated with the compound O=C(CCc1ccccc1)Nc1nnc(-c2ccc3c(c2)OCCO3)s1
Ans: 38

Q: Name the reported EC50 value associated with the compound O=C(Cc1cccc(Cl)c1)Nc1nnc(-c2ccc3c(c2)OCCO3)s1
Ans: 46.7

Q: Name the reported EC50 value associated with the compound O=C(Cc1ccc(Br)cc1)Nc1nnc(-c2ccc3c(c2)OCCO3)s1
Ans: 54.9

Q: Name the reported EC50 value associated with the compound O=C(/C=C/c1ccccc1)Nc1nnc(-c2ccc3c(c2)OCCO3)s1
Ans: 29.5

Q: Name the reported EC50 value associated with the compound O=C(Cc1ccccc1)Nc1nnc(-c2ccc3c(c2)OCCO3)s1
Ans: 50.2

Q: Name the reported EC50 value associated with the compound O=C(Nc1nnc(-c2ccc3c(c2)OCCO3)s1)c1ccc(Cl)nc1
Ans: 36.5

* * *

# Tested on: HeLa
# Assay method text: Antiproliferative activity against human HeLa cells after 48 hrs by MTT assay
# Assay type: functional, cell-based
Assignment: determine reported EC50 for the given compounds.

Q: Name the reported EC50 value associated with the compound CCOc1ccc(CC(=O)Nc2nnc(-c3ccc4c(c3)OCCO4)s2)cc1OCC
Ans: > 100 µg/mL

Q: Name the reported EC50 value associated with the compound Nc1ccc(C(=O)Nc2nnc(-c3ccc4c(c3)OCCO4)s2)cc1
Ans: > 100 µg/mL

Q: Name the reported EC50 value associated with the compound Cc1ccc(C(=O)Nc2nnc(-c3ccc4c(c3)OCCO4)s2)cn1
Ans: > 100 µg/mL

Q: Name the reported EC50 value associated with the compound O=c1[nH]cc(F)c(=O)[nH]1
Ans: 31 µg/mL

Q: Name the reported EC50 value associated with the compound O=C(Cc1ccccc1)Nc1nnc(-c2ccc3c(c2)OCCO3)s1
Ans: 49.9 µg/mL

Q: Name the reported EC50 value associated with the compound O=C(CCc1ccccc1)Nc1nnc(-c2ccc3c(c2)OCCO3)s1
Ans: 32.5 µg/mL

Q: Name the reported EC50 value associated with the compound Cc1ccccc1C(=O)Nc1nnc(-c2ccc3c(c2)OCCO3)s1
Ans: > 100 µg/mL

Q: Name the reported EC50 value associated with the compound O=C(Cc1ccc2ccccc2c1)Nc1nnc(-c2ccc3c(c2)OCCO3)s1
Ans: > 100 µg/mL

Q: Name the reported EC50 value associated with the compound CC(=O)c1ccc(CC(=O)Nc2nnc(-c3ccc4c(c3)OCCO4)s2)cc1
Ans: > 100 µg/mL

Q: Name the reported EC50 value associated with the compound COc1cccc(CC(=O)Nc2nnc(-c3ccc4c(c3)OCCO4)s2)c1
Ans: > 100 µg/mL

Q: Name the reported EC50 value associated with the compound O=C(Cc1ccc(Cl)cc1)Nc1nnc(-c2ccc3c(c2)OCCO3)s1
Ans: 26.8 µg/mL

Q: Name the reported EC50 value associated with the compound O=C(Nc1nnc(-c2ccc3c(c2)OCCO3)s1)c1ccccn1
Ans: > 100 µg/mL

Q: Name the reported EC50 value associated with the compound O=C(Nc1nnc(-c2ccc3c(c2)OCCO3)s1)c1ccc(Cl)nc1
Ans: > 100 µg/mL

Q: Name the reported EC50 value associated with the compound O=C(Nc1nnc(-c2ccc3c(c2)OCCO3)s1)c1ccncc1
Ans: > 100 µg/mL

Q: Name the reported EC50 value associated with the compound O=C(Cc1cccc(Cl)c1)Nc1nnc(-c2ccc3c(c2)OCCO3)s1
Ans: 34.9 µg/mL

Q: Name the reported EC50 value associated with the compound O=C(Cc1ccc(Br)cc1)Nc1nnc(-c2ccc3c(c2)OCCO3)s1
Ans: 51.2 µg/mL

Q: Name the reported EC50 value associated with the compound O=C(Nc1nnc(-c2ccc3c(c2)OCCO3)s1)c1ccccc1
Ans: > 100 µg/mL

Q: Name the reported EC50 value associated with the compound O=C(/C=C/c1ccccc1)Nc1nnc(-c2ccc3c(c2)OCCO3)s1
Ans: > 100 µg/mL

Q: Name the reported EC50 value associated with the compound O=C(Cc1ccc(F)cc1)Nc1nnc(-c2ccc3c(c2)OCCO3)s1
Ans: > 100 µg/mL

Q: Name the reported EC50 value associated with the compound O=C(Cc1cccc(Br)c1)Nc1nnc(-c2ccc3c(c2)OCCO3)s1
Ans: 54.2 µg/mL
